Each entry below lists one item and its recorded inhibition at 10 µM value.
- systemName: human OX1 receptor (Homo sapiens)
- Construct: expressed in transfected cells; host or cells: CHO cells
- Sequence (O43613 whole entry): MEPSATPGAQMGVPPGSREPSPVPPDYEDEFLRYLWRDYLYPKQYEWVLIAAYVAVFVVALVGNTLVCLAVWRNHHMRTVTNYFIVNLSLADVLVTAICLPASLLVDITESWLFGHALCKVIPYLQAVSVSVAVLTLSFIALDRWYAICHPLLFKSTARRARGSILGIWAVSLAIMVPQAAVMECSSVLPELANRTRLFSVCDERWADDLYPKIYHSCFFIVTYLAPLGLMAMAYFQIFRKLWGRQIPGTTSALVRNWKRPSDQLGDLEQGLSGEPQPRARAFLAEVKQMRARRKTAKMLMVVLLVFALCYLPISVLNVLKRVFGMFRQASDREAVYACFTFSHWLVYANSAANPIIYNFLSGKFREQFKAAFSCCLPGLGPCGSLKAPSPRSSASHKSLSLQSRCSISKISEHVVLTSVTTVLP
- experimentNotes: Measurement of orexin receptor antagonistic activity (calcium fluorescence, FLIPRtetra)
- Assay type: cell-based
- measurementSetup: CHO, 10 μM test compound; CHO cells expressing human OX1 receptor; OX-A 1 nM; read-out: Human Orexin1 receptor inhibition (at 10 μM)
Answer with a number only, understood to be in %.

Example results:
compound: Cc1cc(N2CCN(C(=O)c3ccccc3C#N)C[C@H](C)O2)nc(C)n1
displayUnit: %
inhibition at 10 µM: -12
//
compound: Cc1cc(N2CCN(C(=O)c3ccccc3-c3nccs3)CCO2)nc(C)n1
displayUnit: %
inhibition at 10 µM: 88
//
compound: Cc1ccc(-n2nccn2)c(C(=O)N2CCON(c3ncc4ccccc4n3)CC2)c1
displayUnit: %
inhibition at 10 µM: 92

Please give the measured inhibition at 10 µM for this compound: `Cc1nc(N2CCN(C(=O)c3ccccc3-c3nc(C)no3)C[C@H](C)O2)cc(C(F)(F)F)n1`
9

Please give the measured inhibition at 10 µM for this compound: `Cc1cc(N2CCN(C(=O)c3ccccc3-c3nc(C)no3)CCO2)nc(C)n1`
13

Please give the measured inhibition at 10 µM for this compound: `Cc1cc(N2CCN(C(=O)c3ccc(Cl)cc3-n3ccnn3)C[C@H](C)O2)nc(C)n1`
21

###

Each entry below lists one item and its recorded inhibition at 10 µM value.
- systemName: human OX2 receptor (Homo sapiens, UniProt O43614)
- Construct: expressed in transfected cells; host or cells: CHO cells
- Sequence (O43614 whole entry): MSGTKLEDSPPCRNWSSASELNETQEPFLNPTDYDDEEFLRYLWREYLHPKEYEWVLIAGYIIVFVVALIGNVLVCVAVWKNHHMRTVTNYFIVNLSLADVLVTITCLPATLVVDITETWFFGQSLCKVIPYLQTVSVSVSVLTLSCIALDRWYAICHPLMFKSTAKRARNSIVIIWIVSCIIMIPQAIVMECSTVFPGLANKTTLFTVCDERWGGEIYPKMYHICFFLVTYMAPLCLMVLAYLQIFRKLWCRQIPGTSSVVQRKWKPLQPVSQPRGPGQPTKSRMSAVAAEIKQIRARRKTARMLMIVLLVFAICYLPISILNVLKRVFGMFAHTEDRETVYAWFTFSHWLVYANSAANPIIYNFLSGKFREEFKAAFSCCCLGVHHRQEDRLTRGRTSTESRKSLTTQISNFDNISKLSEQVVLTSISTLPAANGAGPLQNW
- experimentNotes: Measurement of orexin receptor antagonistic activity (calcium fluorescence, FLIPRtetra)
- Format: cell-based
- measurementSetup: CHO, 10 μM test compound; CHO cells expressing human OX2 receptor; OX-A 0.3 nM; read-out: Human Orexin2 receptor inhibition (at 10 μM)
Answer with a number only, understood to be in %.

Example results:
structureSmiles: Cc1nc(N2CCN(C(=O)c3cc(F)ccc3-n3nccn3)[C@H](C)CO2)nc(C)c1Cl
inhibition at 10 µM, %: 98
//
structureSmiles: Cc1nc(N2CCN(C(=O)c3cc(F)c(F)cc3-n3nccn3)C[C@H](C)O2)cc(C(F)(F)F)n1
inhibition at 10 µM, %: 94
//
structureSmiles: Cc1cc(C)nc(N2CCN(C(=O)c3cccc4cccnc34)CCO2)n1
inhibition at 10 µM, %: 90
//
structureSmiles: Cc1ncc(Cl)c(N2CCN(C(=O)c3cc(Cl)ccc3-n3nccn3)[C@H](C)CO2)n1
inhibition at 10 µM, %: 102
//
structureSmiles: Cc1cc(C)nc(N2CCN(C(=O)c3ccccc3C(F)(F)F)CCO2)n1
inhibition at 10 µM, %: 72

Provide the documented inhibition at 10 µM with human OX2 receptor (Homo sapiens, UniProt O43614) as the system for `C[C@@H]1CON(c2ncnc3ccn(C)c23)CCN1C(=O)c1cc(F)ccc1-n1nccn1`
24

Provide the documented inhibition at 10 µM with human OX2 receptor (Homo sapiens, UniProt O43614) as the system for `Cc1cc(C#N)nc(N2CCN(C(=O)c3ccccc3-n3nccn3)[C@H](C)CO2)n1`
99

Provide the documented inhibition at 10 µM with human OX2 receptor (Homo sapiens, UniProt O43614) as the system for `Cc1cc(N2CCN(C(=O)c3cc(Cl)ccc3-c3ncc(F)cn3)[C@H](C)CO2)nc(C)n1`
102
